Exercise: state measured parasite growth, % of control (lower = inhibition) for each of the compounds provided.
# Measurement description: qHTS profiling of the MIPE4 collection as inhibitors of Plasmodium falciparum (DD2) proliferation (Rep 2) (AID 743346)
# Run conditions: P. falciparum Dd2 in erythrocytes, SYBR Green DNA, 72 h; at 28.5 µM unless noted
Your answer should be a number followed by the unit of measure.

Observe how each entry below is paired with its result.
Compound	Assay result
COc1cc(Nc2ncc3c(n2)-c2ccc(Cl)cc2C(c2c(F)cccc2OC)=NC3)ccc1C(=O)O	39.4%
CS(=O)(=O)c1cccc(CNc2nc(Nc3ccc4c(c3)CCC(=O)N4)ncc2C(F)(F)F)c1	28.9%
CCC(=O)N[C@H]1CC[C@H](C(=O)N(C)c2ccc(-c3nc4ccccc4o3)cc2)C1	41.7%
COCCNCCCn1c(C(=O)CF)c(-c2ccc(C)cc2)c2c(N)ncnc21	36.5%
CCOc1ccn(-c2ccc(F)cc2)c(=O)c1C(=O)Nc1ccc(Oc2ccnc(N)c2Cl)c(F)c1	36%

Give measured parasite growth, % of control (lower = inhibition) for every item shown.
1. COc1cccc2cc(-c3nc(C4CCC(C(=O)O)CC4)n4ncnc(N)c34)[nH]c12 (stereo unspecified)
2. O=C(c1cc(Cc2n[nH]c(=O)c3ccccc23)ccc1F)N1CCN(C(=O)C2CC2)CC1
3. Nc1nc2[nH]cc(CCc3ccc(C(=O)N[C@@H](CCC(=O)O)C(=O)O)cc3)c2c(=O)[nH]1
4. CCN(c1ccccc1)c1cc(NC)[n+](C)c(C)n1
5. CCCn1c(=O)c2[nH]c(C34CC5CC3C[C@@H](C5)C4)nc2n(CCC)c1=O
6. Clc1cccc(Cl)c1NC1=NCCN1
7. Cn1cc(-c2ccc3nnc(C(F)(F)c4ccc5ncccc5c4)n3n2)cn1

28.6%
44.7%
26.3%
58.7%
17.3%
56.5%
41.1%

Give measured parasite growth, % of control (lower = inhibition) for every item shown.
1. NC[C@H](O)c1ccc(O)c(O)c1
2. CCCc1nn(C)c2c(=O)[nH]c(-c3cc(S(=O)(=O)N4CCN(C)CC4)ccc3OCC)nc12

78.3%
51.4%

Give measured parasite growth, % of control (lower = inhibition) for every item shown.
1. CNCc1ccc(-c2[nH]c3cc(F)cc4c3c2CCNC4=O)cc1
2. Cc1ccc(-n2nc(C(C)(C)C)cc2NC(=O)Nc2ccc(OCCN3CCOCC3)c3ccccc23)cc1
3. CCCS(=O)(=O)Nc1ccc(F)c(C(=O)c2c[nH]c3ncc(-c4ccc(Cl)cc4)cc23)c1F
4. CC(C[N+](C)(C)C)OC(N)=O (stereo unspecified)
5. CCCC(CCC)C(=O)O
6. Cc1c(CN2CCN(C(=O)C(C)C)CC2)sc2c(N3CCOCC3)nc(-c3cnc(N)nc3)nc12
7. Cc1cnc(Nc2ccc(OCCN3CCCC3)cc2)nc1Nc1cccc(S(=O)(=O)NC(C)(C)C)c1

["51.1%", "31.6%", "52.1%", "96.7%", "148%", "14.5%", "11%"]

====

Exercise: state measured activity, negative = inhibition for each of the compounds provided.
# Measurement description: qHTS profiling for inhibitors of Plasmodium falciparum proliferation (AID 504749); note: nearly all actives have a fitted effect of over 60% in size;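 for activity, negative = inhibition: 0% = DMSO vehicle and full inhibition = artemisinin control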
# Run conditions: P. falciparum in erythrocytes, SYBR Green DNA, 72 h; at 28.7 µM (top of the series); parasite line B
Records with an inconclusive call do not appear.
Numbers only, in %.

Observe how each entry below is paired with its result.
Compound	activity, negative = inhibition / %
CC(c1cc2ccccc2s1)N(O)C(N)=O (stereo not drawn)	-4.79
Clc1cccc(Cl)c1NC1=NCCN1	0.0653
Cc1ccc(N(CC2=NCCN2)c2cccc(O)c2)cc1	-5.03
NCCc1ccc(O)c(O)c1	1.48
NC(=O)c1cnccn1	12.8
Clc1ccc(Nc2nnc(Cc3ccncc3)c3ccccc23)cc1	-13.7

Give measured activity, negative = inhibition for every item shown.
1. Cc1[nH]c(=O)c(C#N)cc1-c1ccncc1
2. CCCc1nn(C)c2c(=O)[nH]c(-c3cc(S(=O)(=O)N4CCN(C)CC4)ccc3OCC)nc12
3. CC(C)NCC(O)COc1ccc(COCCOC(C)C)cc1 (stereo not drawn)
4. Cc1cn[nH]c1

[-1.27, 0.131, 5.04, 14.9]

Give measured activity, negative = inhibition for every item shown.
1. N=c1nc(N2CCCCC2)cc(N)n1O
2. O=c1[nH]cnc2[nH]ncc12
3. Cc1ccccc1C(OCCN(C)C)c1ccccc1 (stereo not drawn)
4. NS(=O)(=O)c1cc2c(cc1Cl)NC=NS2(=O)=O
5. Cc1[nH]c(=O)c(C#N)cc1-c1ccc2nccn2c1
6. O=NN(CCCl)C(=O)NCCCl
7. CNC[C@H](O)c1cccc(O)c1
8. N[C@@H]1CONC1=O

[18.3, 2.37, 5.42, 11, 15.3, 4.82, -11, -17]

====

# Measurement description: Validation qHTS assay for inhibitors of Activation Induced Cytidine Deaminase (AID): UDG Counterscreen signal (AID 1347427); note: 0% is about no effect
# Run conditions: biochemical UDG counterscreen, fluorescence signal; series mostly up to 115 µM
The source made the active and inactive calls. Calls come from the whole dose curve; as a rule, active = well fitted curve in the direction sought with a large enough effect; inconclusive = small, poorly fitted or top-dose-only effect, or another doubt; inactive = no such curve, though single readings can be large or run the other way.
Reported property: outcome

Observe how each entry below is paired with its result.
Compound	Assay result
CCn1cc(C(=O)O)c(=O)c2cc(F)c(N3CCNC(C)C3)c(F)c21 (stereo not drawn)	inactive
NC(N)=NC(=O)c1nc(Cl)c(N)nc1N	inactive
NS(=O)(=O)c1cc2c(cc1Cl)NC=NS2(=O)=O	inactive
CCN(CC)CCCC(C)Nc1ccnc2cc(Cl)ccc12 (stereo not drawn)	inactive
OC(CCN1CCCCC1)(c1ccccc1)C1CC2C=CC1C2 (stereo not drawn)	inactive

Give measured outcome for every item shown.
1. CCCCNc1cc(C(=O)O)cc(S(N)(=O)=O)c1Oc1ccccc1
2. NCCCC(N)(C(=O)O)C(F)F (stereo not drawn)
3. Oc1ccc(C2CNCCc3c2cc(O)c(O)c3Cl)cc1 (stereo not drawn)

1: inactive; 2: inactive; 3: inactive

====

# Measurement description: Quantitative High-Throughput drug screen in 47 multiple myeloma cell lines against the NCATS MIPE library collection: Delta47_JCRB cell viability assay (AID 1918925; note: nearly all actives have a fitted effect of over 45% in size)
# Run conditions: Delta47 myeloma viability, CellTiter-Glo ATP, 48 h; series mostly up to 45.8 µM
Inconclusive results are not listed. Activity calls are given as the source filed them. Calls follow the shape of the dose curve; as a rule, active = well fitted cell-killing curve with a large enough effect; inconclusive = small, poorly fitted or top-dose-only effect, or effect the other way; inactive = no such curve, though single readings can be large or run the other way.
# output must be one of active, inactive

Worked examples follow.
Compound structure string	Label class
CCC(=O)N[C@H]1CC[C@H](C(=O)N(C)c2ccc(-c3nc4ccccc4o3)cc2)C1	active
Nc1nc2[nH]cc(CCc3ccc(C(=O)N[C@@H](CCC(=O)O)C(=O)O)cc3)c2c(=O)[nH]1	inactive

Consider the additional compound presented here.
Any idea what this test logged for CCCc1nc2c(C)cc(-c3nc4ccccc4n3C)cc2n1Cc1ccc(-c2ccccc2C(=O)O)cc1 ? inactive

====

# Test system: CP237
# Measurement description: qHTS profiling for inhibitors of Plasmodium falciparum proliferation (AID 504749); note: nearly all actives have a fitted effect of over 60% in size
# Run conditions: P. falciparum in erythrocytes, SYBR Green DNA, 72 h; series mostly up to 28.7 µM
Records with an inconclusive call do not appear. Active and inactive are the calls of the source. Calls follow the shape of the dose curve; as a rule, active = well fitted inhibition curve with a large enough effect; inconclusive = small, poorly fitted or top-dose-only effect; inactive = flat fitted curve, though single readings scatter.
# output must be one of true for active, false for inactive

Compound	Label class
Cc1cc2c(C(C)C)c(O)c(O)c(C=O)c2c(O)c1-c1c(C)cc2c(C(C)C)c(O)c(O)c(C=O)c2c1O	true
CCOC(=O)N1CCC(=C2c3ccc(Cl)cc3CCc3cccnc32)CC1	true
NCCc1ccc(O)c(O)c1	false

Any idea what this test logged for CCCCNc1cc(C(=O)O)cc(S(N)(=O)=O)c1Oc1ccccc1 ? false

Any idea what this test logged for Cn1cnc([N+](=O)[O-])c1Sc1ncnc2nc[nH]c12 ? false

Any idea what this test logged for NCCCC(N)(C(=O)O)C(F)F (stereo unspecified) ? false

====

# Measurement description: High-throughput drug toxicity screening in the BPDCN cell line Cal-1 (AID 1224825);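 note: cells exposed to compounds for 48 h; 100% = DMSO and 0% = bortezomib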
# Run conditions: Cal-1 BPDCN cell viability, qHTS; at 45.8 µM (top of the series) unless noted
Simple rule here: viability (% of control) less than 70% is fulfilled, otherwise not fulfilled.

Worked examples follow.
Compound	Label class
O=c1n(CCCN2CCN(c3cccc(Cl)c3)CC2)nc2ccccn12	not fulfilled
CCc1cc(Nc2nccc(-c3c(-c4ccc(OC)c(C(=O)Nc5c(F)cccc5F)c4)nc4ccccn34)n2)c(OC)cc1N1CCC(N2CCN(S(C)(=O)=O)CC2)CC1	not fulfilled
N[C@@H]1CONC1=O	not fulfilled
CNC(=O)c1ccc(N2C(=S)N(c3ccc(C#N)c(C(F)(F)F)c3)C(=O)C2(C)C)cc1F	not fulfilled
Nc1ncnc2nc(-c3ccc(N4CCOCC4)nc3)cc(-c3cccc(Br)c3)c12	fulfilled

Just wondering, is viability (% of control) of Cc1c(C)c2c(c(C)c1O)CCC(C)(COc1ccc(CC3SC(=O)NC3=O)cc1)O2 (stereo not drawn) below 70%? not fulfilled

Just wondering, is viability (% of control) of CCc1ccc(CCOc2ccc(CC3SC(=O)NC3=O)cc2)nc1 (stereo not drawn) below 70%? not fulfilled

Just wondering, is viability (% of control) of CNC(=O)c1ccc(C)c(-n2c(C)cc(OCc3ccc(F)cc3F)c(Br)c2=O)c1 below 70%? not fulfilled
